src = patent US20050282743A1

target_system: T1, GST-Outer Membrane PDZ domain 1 (Homo sapiens (Human)), P57105
T1 chain: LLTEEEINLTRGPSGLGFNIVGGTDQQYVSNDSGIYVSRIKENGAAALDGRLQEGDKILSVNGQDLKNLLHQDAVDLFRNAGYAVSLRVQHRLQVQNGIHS
assay_info: G' assay; note: key of the grades not given here
measured_attribute: Classification (A450 class)
Give the value, in units of A450 class, as a plain number.

Lab note: TREDIYVNYPTFSRRPKTRV (modifications not checked) [DNAM-1] gave Classification of 1

Lab note: ISGTPTSTMVHGMTSSSSVV (modifications not checked) [Clasp-2] gave Classification of 1

Lab note: VGTLLLERVIFPSVKIATLV (modifications not checked) [AdenoE4 typ9] gave Classification of 5

Lab note: ELLQFCRTPNPALKNGQYWV (modifications not checked) [CSPG4 (chondroitin sulfae proteoglycan 4, melanoma-associated)] gave Classification of 1

Lab note: QPTPTLGLNLGNDPDRGTSI (modifications not checked) [GluR delta-2] gave Classification of 2

Lab note: KENDYESISDLQQGRDITRL (modifications not checked) [PAG] gave Classification of 2

Lab note: PYSELNYETSHYPASPDSWV (modifications not checked) [catenin - delta 2] gave Classification of 5
